read-out: growth arrest and DNA damage 45 (GADD45G), GADD45G (gene 10912); test: LTEA_HepaRG_GADD45G: Life Technologies and Expression Analysis (LTEA) Assay for growth arrest and DNA damage 45 (GADD45G) using HepaRG (AID 2283499); details: mRNA level, 48 h; actives raise or lower the signal
Activity calls are given as the source filed them. Rule for the calls: active = hit-call score of the fitted dose curve at least 0.9, where 1 is the maximum; inactive = score below 0.9.
Answer with one of the outcomes active, inactive

# COMPOUND, GROUP LABEL
records = [
    ("CCNc1ccccc1", "inactive"),
    ("CCCCCCCCCCCCCCCO", "inactive"),
    ("Cc1ccc(O)cc1", "inactive"),
    ("O=C(O)c1cc(N=Nc2ccc(S(=O)(=O)Nc3ccccn3)cc2)ccc1O", "inactive"),
    ("Cc1ccc(C)c(O)c1", "inactive"),
    ("CC(C)=CCCC(C)=CC=O", "inactive"),
    ("CC(=O)OC[C@H]1O[C@@](COC(C)=O)(O[C@H]2O[C@H](COC(C)=O)[C@@H](OC(C)=O)[C@H](OC(C)=O)[C@H]2OC(C)=O)[C@@H](OC(C)=O)[C@@H]1OC(C)=O", "inactive"),
    ("Cc1ccc(S(=O)(=O)O)cc1C", "inactive"),
]

Problem: What classification did O=C(O)c1cccc(N(Cc2cccnc2)c2ccc(OC(F)F)c(OC(F)F)c2)c1 end up with in this test?
Result: inactive

Problem: What classification did Cc1[nH]cnc1C[C@H]1CCc2c(C)c3ccccc3n2C1=O end up with in this test?
Result: active

Problem: What classification did Cn1cnc([N+](=O)[O-])c1Sc1ncnc2nc[nH]c12 end up with in this test?
Result: active

====

read-out: Vascular cell adhesion molecule 1 (VCAM1), VCAM1 (gene 7412); assay: BSK_LPS_VCAM1: BioMAP Diversity Plus: LPS Assay for Vascular cell adhesion molecule 1 (VCAM1) Biomarker Activity (AID 2283086); conditions: primary human HUVEC with PBMC; actives raise or lower the signal
Active and inactive are the calls of the source. The calls were made as follows: active = hit-call score of the fitted dose curve at least 0.9, where 1 is the maximum; inactive = score below 0.9.
Answer with one of the outcomes active, inactive

# MOLECULE, GROUP LABEL
records = [
    ("COCCOc1cc2cc(C(=O)NC3CCN(C(C)C)CC3)n(CC(=O)Nc3ccc(Cl)cn3)c2cn1", "inactive"),
    ("CNS(=O)(=O)c1cc(C(=O)N2CCC(CCN3C4CCC3CC(n3c(C)nc5ccccc53)C4)(c3cccc(F)c3)CC2)c(Cl)cc1F (configuration not stated)", "active"),
]

Problem: What classification did Cc1ccc(S(=O)(=O)O)cc1C end up with in this test?
Result: inactive

Problem: What classification did Cc1ccc(C)c(O)c1 end up with in this test?
Result: inactive

Problem: What classification did CC1=CC(=O)CC(C)(C)C1 end up with in this test?
Result: inactive

Problem: What classification did CCOC(=O)COc1ccc2c(c1)CC(NCC(O)c1cccc(Cl)c1)CC2 (configuration not stated) end up with in this test?
Result: active

Problem: What classification did Fc1ccccc1[C@@H](F)COC1CCC(Nc2ncnc3[nH]ncc23)CC1 (some centres not stated) end up with in this test?
Result: inactive

Problem: What classification did Cc1ccc(O)cc1 end up with in this test?
Result: inactive

====

experiment: BSK_CASM3C_SRB: Viability Assessment in the BioMAP Diversity Plus: CASM3C Assay (AID 2283050); conditions: primary human coronary artery smooth muscle cells;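 note: total protein by SRB staining as cytotoxicity measure in parallel cultures; cells exposed to compound for 24 h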
Calls of active or inactive are those of the source. How the source made its calls: active means hit-call score of the fitted dose curve at least 0.9, where 1 is the maximum; inactive means score below 0.9.
Answer with one of the outcomes y (active), n (inactive)

Take a look at these entries with their results.
# MOLECULE, GROUP LABEL
rows = [
    ("CC(C)CCCCCCCOC(=O)CCCCC(=O)OCCCCCCCC(C)C", "n"),
    ("CCOC(=O)c1ccc(C2CCC(NC[C@H](O)COc3ccc(O)c(NS(C)(=O)=O)c3)CC2)cc1 (some centres undefined)", "y"),
    ("COC(=O)c1ccccc1O", "n"),
]

Problem: What classification did Nc1ccc(Nc2ccccc2)cc1 end up with in this test?
Result: n

Problem: What classification did CC(=O)OC[C@H]1O[C@@](COC(C)=O)(O[C@H]2O[C@H](COC(C)=O)[C@@H](OC(C)=O)[C@H](OC(C)=O)[C@H]2OC(C)=O)[C@@H](OC(C)=O)[C@@H]1OC(C)=O end up with in this test?
Result: n

Problem: What classification did Cn1cnc([N+](=O)[O-])c1Sc1ncnc2nc[nH]c12 end up with in this test?
Result: n

Problem: What classification did CCCCC(CC)COC(=O)c1ccc(C(=O)OCC(CC)CCCC)cc1 (centres undefined) end up with in this test?
Result: n

Problem: What classification did CN(C)c1ccc(Cc2ccc(N(C)C)cc2)cc1 end up with in this test?
Result: n

Problem: What classification did O=C(O)c1cc(N=Nc2ccc(S(=O)(=O)Nc3ccccn3)cc2)ccc1O end up with in this test?
Result: n

Problem: What classification did COc1ccc(/C=C/S(=O)(=O)NC(=O)c2ccc(C)cc2Cl)cc1 end up with in this test?
Result: n

Problem: What classification did CCCN(C1CCN(C(=O)C2CCNCC2)CC1)[C@@H]1CCc2ccc(OC)cc2C1 end up with in this test?
Result: n

Problem: What classification did CCCCCCc1ccc(O)cc1O end up with in this test?
Result: n

Problem: What classification did CCCCCCCCCCCCCCCO end up with in this test?
Result: n

Problem: What classification did C1N2CN3CN1CN(C2)C3 end up with in this test?
Result: n

Problem: What classification did O=C(NS(=O)(=O)/C=C/c1ccccc1)c1ccc(F)cc1Cl end up with in this test?
Result: n

Problem: What classification did Fc1ccccc1[C@@H](F)COC1CCC(Nc2ncnc3[nH]ncc23)CC1 (some centres undefined) end up with in this test?
Result: n

Problem: What classification did CCOCCO end up with in this test?
Result: n

Problem: What classification did O=c1[nH]c2ccc(S(=O)CCN3CCC(Cc4ccc(F)cc4)CC3)cc2o1 (centres undefined) end up with in this test?
Result: n

Problem: What classification did O=C(O)CC(O)C(=O)O (centres undefined) end up with in this test?
Result: n

Problem: What classification did CC(C)CC(C)(O)C#CC(C)(O)CC(C)C (centres undefined) end up with in this test?
Result: n

====

read-out: Cytochrome P450 (CYP2B6), CYP2B6 (gene 1555); experiment: LTEA_HepaRG_CYP2B6: Life Technologies and Expression Analysis (LTEA) Assay for Cytochrome P450 (CYP2B6) using HepaRG (AID 2283481); conditions: mRNA level, 48 h; actives raise or lower the signal
Active and inactive are the calls of the source. Rule for the calls: active = hit-call score of the fitted dose curve at least 0.9, where 1 is the maximum; inactive = score below 0.9.
PARAMETER: AC50

# COMPOUND, AC50
records = [
    ("COCCOCCOCCOC", "inactive"),
    ("C1N2CN3CN1CN(C2)C3", "inactive"),
    ("O=C(NS(=O)(=O)/C=C/c1ccccc1)c1ccc(F)cc1Cl", "0.459 µM (active)"),
    ("CCN(C(=O)c1cc(C)cc(OC[C@H](C)Nc2ccncc2)c1)C(C)C", "7.91 µM (active)"),
    ("COC(=O)CC(=O)OC", "1.93 µM (active)"),
    ("CCOCCOCCOCCO", "inactive"),
    ("CCCCCCCCCCCCCCCO", "inactive"),
    ("Nc1cccc(N)c1", "inactive"),
]

Problem: Provide only the value of recorded AC50 for CN(C)c1ccc(Cc2ccc(N(C)C)cc2)cc1
Result: 1.6 µM (active)

Problem: Provide only the value of recorded AC50 for CCCCC(CC)COC(=O)c1ccc(C(=O)OCC(CC)CCCC)cc1 (configuration not stated)
Result: inactive

Problem: Provide only the value of recorded AC50 for CCCCCCc1ccc(O)cc1O
Result: inactive

Problem: Provide only the value of recorded AC50 for CNCc1ccc(NC(=O)c2c[nH]c3c2C(=O)CCC3)cc1
Result: inactive

Problem: Provide only the value of recorded AC50 for Oc1ccc2c(c1)-c1ccccc1C2
Result: 50 µM (active)

Problem: Provide only the value of recorded AC50 for CC(C)CCCCCCOC(=O)c1ccc(C(=O)OCCCCCCC(C)C)c(C(=O)OCCCCCCC(C)C)c1
Result: inactive

Problem: Provide only the value of recorded AC50 for CCc1cc(SCc2sc(-c3ccc(C(F)(F)F)cc3)nc2CN2CCN(c3ccc(OC)cc3)CC2)ccc1OCC(=O)O
Result: 7.48 µM (active)

Problem: Provide only the value of recorded AC50 for CC1=CC(=O)CC(C)(C)C1
Result: inactive

Problem: Provide only the value of recorded AC50 for COC(=O)c1ccccc1O
Result: inactive

Problem: Provide only the value of recorded AC50 for O=C(O)c1cc(N=Nc2ccc(S(=O)(=O)Nc3ccccn3)cc2)ccc1O
Result: inactive

Problem: Provide only the value of recorded AC50 for COc1cccc(-c2ccc(/C=C\CN3CCCCCC3)cc2Cl)c1
Result: 77.3 µM (active)

Problem: Provide only the value of recorded AC50 for CCOc1cccc(-n2cc(C(=O)N3CCN(c4cc(C(=O)O)c5ccccc5c4)CC3)nc2-c2ccc(C)cc2)c1
Result: 26.5 µM (active)

Problem: Provide only the value of recorded AC50 for O=C(O)c1cccc(N(Cc2cccnc2)c2ccc(OC(F)F)c(OC(F)F)c2)c1
Result: inactive

Problem: Provide only the value of recorded AC50 for CC(=O)OC[C@H]1O[C@@](COC(C)=O)(O[C@H]2O[C@H](COC(C)=O)[C@@H](OC(C)=O)[C@H](OC(C)=O)[C@H]2OC(C)=O)[C@@H](OC(C)=O)[C@@H]1OC(C)=O
Result: inactive
